test: APR_HepG2_MitoticArrest_72hr: Apredica 72-hour HepG2 Assay for Mitotic Arrest (AID 2282918); conditions: high-content imaging, actives raise or lower the signal
The source made the active and inactive calls. How the source made its calls: active means hit-call score of the fitted dose curve at least 0.9, where 1 is the maximum; inactive means score below 0.9.
REPORTED_METRIC: AC50

[[record]]
molecule = "Cc1cccc([N+](=O)[O-])c1C"
value = "inactive"

[[record]]
molecule = "Cc1ccc(C(C)C)c(O)c1"
value = "inactive"

[[record]]
molecule = "Cc1ccc(N(C)C)cc1"
value = "inactive"

[[record]]
molecule = "COc1ccc2c(c1)c(CC(=O)O)c(C)n2C(=O)c1ccc(Cl)cc1"
value = "inactive"

[[record]]
molecule = "CC1(C)CC(N=C=O)CC(C)(CN=C=O)C1 (centres undefined)"
value = "93.1 µM (active)"

[[record]]
molecule = "Cc1cc(NC(=O)C(=O)O)cc(C)c1Oc1ccc(O)c2c1CCC2"
value = "inactive"

[[record]]
molecule = "OC[C@@H](O)[C@@H](O)[C@H](O)[C@H](O)CO"
value = "inactive"

[[record]]
molecule = "Cc1ccccc1Cl"
value = "inactive"

[[record]]
molecule = "CCCCCCCCCCO"
value = "inactive"

[[record]]
molecule = "CCCCCCCCCCCC(=O)OC"
value = "inactive"

[[record]]
molecule = "C=CCc1ccc(O)c(OC)c1"
value = "inactive"

[[record]]
molecule = "COc1cc(-c2nc(NC(=O)c3cc4cc(C)cc(C)c4n3CC(=O)O)sc2CCC2CCCCC2)c(OC)cc1Cl"
value = "41.1 µM (active)"

[[record]]
molecule = "COC(=O)c1ccc(O)cc1"
value = "inactive"

[[record]]
molecule = "NC(=O)Cn1c(=O)cc(CCN2CCN(c3nccc4sccc34)CC2)c2ccc(F)cc21"
value = "98.9 µM (active)"

[[record]]
molecule = "CCCCCCCC=O"
value = "inactive"

[[record]]
molecule = "CC1=C(/C=C/C(C)=C/C=C/C(C)=C/CO)C(C)(C)CCC1"
value = "92.8 µM (active)"

[[record]]
molecule = "CCCCCCCCCCC"
value = "inactive"

[[record]]
molecule = "CN[C@H]1CC[C@@H](c2ccc(Cl)c(Cl)c2)c2ccc(S(N)(=O)=O)cc21"
value = "3.89 µM (active)"

[[record]]
molecule = "CC(=O)OC/C=C(\\C)CCC=C(C)C"
value = "inactive"

